# target_desc: Delta-type opioid receptor (Homo sapiens)
# assay_summary: Antagonist activity at human cloned delta opioid receptor expressed in CHO cells assessed as inhibition of DPDPE-stimulated [35S]GTP-gamma-S binding
# Type: functional, cell-based
I'd appreciate it if you could supply Ke values for the items below.
Numbers only, in nM.

# count of solved cases: 3
{"columns": ["record_smiles", "numeric_result"],
 "data": [
  ["COc1ccc2cc(C(=O)N[C@H](CN3CC[C@@](C)(c4cccc(O)c4)[C@@H](C)C3)C(C)C)[nH]c2c1", 282],
  ["CC(C)[C@@H](CN1CC[C@@](C)(c2cccc(O)c2)[C@@H](C)C1)NC(=O)CN1CCc2ccc(O)cc2C1", 177],
  ["CC(C)[C@@H](CN1CC[C@@](C)(c2cccc(O)c2)[C@@H](C)C1)NC(=O)c1cnc2cc(O)ccc2c1", 229]
]}

Give Ke for each listed item.
1. COc1ccc2c(c1)CN[C@@H](C(=O)N[C@H](CN1CC[C@@](C)(c3cccc(O)c3)[C@@H](C)C1)C(C)C)C2
2. COc1ccc2cc(C(=O)N[C@H](CN3CC[C@@](C)(c4cccc(O)c4)[C@@H](C)C3)C(C)C)cnc2c1
3. COc1ccc2c(c1)CN(CC(=O)N[C@H](CN1CC[C@@](C)(c3cccc(O)c3)[C@@H](C)C1)C(C)C)CC2
4. CC(C)CCN(CCN1CC[C@@](C)(c2cccc(O)c2)[C@@H](C)C1)C(=O)[C@H]1Cc2ccc(O)cc2CN1
5. CC(C)[C@@H](CN1CC[C@@](C)(c2cccc(O)c2)[C@@H](C)C1)NC(=O)c1nc2ccc(O)cc2[nH]1
6. CC(C)[C@@H](CN1CC[C@@](C)(c2cccc(O)c2)[C@@H](C)C1)NC(=O)c1cc2ccc(O)cc2[nH]1
7. CC(=O)Nc1ccc2c(c1)CN[C@@H](C(=O)N[C@H](CN1CC[C@@](C)(c3cccc(O)c3)[C@@H](C)C1)C(C)C)C2

118
158
51.7
9.3
290
97
555

Give Ke for each listed item.
1. CC(C)[C@@H](CN1CC[C@@](C)(c2cccc(O)c2)[C@@H](C)C1)NC(=O)c1c[nH]c2cc(O)ccc12
2. CC(C)[C@@H](CN1CC[C@@](C)(c2cccc(O)c2)[C@@H](C)C1)NC(=O)[C@H]1Cc2ccc(N)cc2CN1

1. 224
2. 373
